These measurements were taken from patent US20220265709A1.

# System Tested: His-tagged human BCMA (ACRO Biosystems, Cat. #: BCA-H522y) (human)
# Sequence (Q02223 1-54): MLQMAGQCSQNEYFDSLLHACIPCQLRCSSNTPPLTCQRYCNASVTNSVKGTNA
# Assay Name: SPR (BIAcore T200) affinity ranking; crude sdAb captured via tag, antigen at 100 nM
Define the label as t when koff is strictly less than 0.3 s⁻¹ and as f in all remaining cases.

Before answering, review these 3 worked examples.
anti-BCMA sdAb BCMA1 (VHH, part only, affinity tag) VHH: QVQLVESGGGSVQAGGSLRLSCKASGAIYDTNCMAWFRQTPGKEREGVATIDLGNPITYYADSVKGRFTISRDNAKNTMYLQMNSLEPEDTAMYYCAATSWWPCTTFNAGYANWGQGTQVTVSS	t
anti-BCMA sdAb BCMA11 (VHH, part only, affinity tag) VHH: QVQLVESGGGVVQPGGSLRLSCAASGFAFSNYAMTWGRQAPGQRLEWVSTIDSGGGSTTYSDSVKGRFTISRDNAKNTLYLQLNNLKSEDTAVYYCSENVDCNGDYCYRANYWGQGTQVTVSS	t
anti-BCMA sdAb BCMA6 (VHH, part only, affinity tag) VHH: QMQLVESGGGSVQAGGSLRLSCTASGYTFDDSAMGWYRQAPGNECELVSSISSDGSTYYSDSVKGRFTISQDNAKNTMYLQMNSLKPEDTAVYSCAASSGEDGGSWSTPCHFFGYWGQGTQVTVSS	t

Take the binder anti-BCMA sdAb BCMA7 (VHH, part only, affinity tag) VHH: QVHLMESGGGSVQSGGSLRLSCAASGYTYSSYCMAWFRQAPGKEREGVAAIASDGSTYYTDSVKGRFTISQDNAKNTLYLQMNSLKPEDTAMYYCGADPVGCSWPDYWGQGTQVTVSS and say whether its koff is less than 0.3 s⁻¹.
t

Take the binder anti-BCMA sdAb BCMA9 (VHH, part only, affinity tag) VHH: QVQLVESGGGSVQAGGSLRLSCKSSGAPYSSNCMAWFRQTPGKGREGVATIDLASHDTYYADSVKGRFTISRDNAKNTMYLQMNSLKPEDTAMYYCAATSWWPCTTFNGGYANWGQGTQVTVSS and say whether its koff is less than 0.3 s⁻¹.
f
